Each recorded value in this set is attributed to PubChem BioAssay (NCATS).

- systemTested: Cytochrome P450 2C9 (Homo sapiens) (UniProt P11712)
- Sequence (P11712 whole entry, looked up): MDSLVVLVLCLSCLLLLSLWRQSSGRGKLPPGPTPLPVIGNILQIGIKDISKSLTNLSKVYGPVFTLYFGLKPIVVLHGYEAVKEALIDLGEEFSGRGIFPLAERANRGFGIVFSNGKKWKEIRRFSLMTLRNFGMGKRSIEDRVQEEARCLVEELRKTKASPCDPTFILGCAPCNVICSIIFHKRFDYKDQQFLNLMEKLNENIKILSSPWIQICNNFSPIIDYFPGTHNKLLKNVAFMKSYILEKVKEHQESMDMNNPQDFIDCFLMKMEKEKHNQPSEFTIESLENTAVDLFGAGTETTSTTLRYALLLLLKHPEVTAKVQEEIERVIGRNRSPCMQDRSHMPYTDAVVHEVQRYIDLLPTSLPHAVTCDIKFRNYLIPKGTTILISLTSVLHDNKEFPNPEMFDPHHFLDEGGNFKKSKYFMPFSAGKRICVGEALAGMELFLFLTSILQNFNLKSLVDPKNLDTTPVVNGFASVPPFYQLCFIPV
- procedureText: Cytochrome P450 family 2 subfamily C member 9 (CYP2C9) small molecule antagonists: luciferase biochemical (cell-free) qHTS assay (AID 1645842); further: nearly all actives have a fitted effect of over 55% in size
- experimentalContext: P450-Glo CYP2C9 enzyme assay, luciferin luminescence; series mostly up to 57.4 µM
Results filed as inconclusive are left out. Calls of active or inactive are those of the source. The call rests on the fitted dose curve; in most records, active means well fitted inhibition curve with a large enough effect in the repeat runs; inconclusive means weak or mixed curves; inactive means no such curve, though single readings can be large or run the other way.
Give one outcome, nothing more. List: class 1 (active), class 0 (inactive)

These solved cases illustrate the format of a correct answer.
Fill in: this test's call for COc1ccc(S(=O)(=O)Nc2nnc(CC(C)C)s2)cc1 is ___
class 1

Fill in: this test's call for CC(C)(C)NCC(O)COc1ccc(NC(=O)NC2CCCCC2)cc1 (centres undefined) is ___
class 0

Fill in: this test's call for CCN(CC)CCCC(C)Nc1c2ccc(Cl)cc2nc2ccc(OC)cc12 (centres undefined) is ___
class 0

Fill in: this test's call for NC(=O)N/N=C/c1ccc([N+](=O)[O-])o1 is ___
class 0

Fill in: this test's call for Oc1ccc(C(O)CNCCCCCCNCC(O)c2ccc(O)c(O)c2)cc1O (centres undefined) is ___
class 0

Fill in: this test's call for CC1(C)[C@@H]2CC[C@@]1(C)C(=O)C2 is ___
class 0

New cases:
Fill in: this test's call for c1ccc2c(CC3=NCCN3)cccc2c1 is ___
class 0

Fill in: this test's call for Cc1ncc(COP(=O)(O)O)c(C=O)c1O is ___
class 0

Fill in: this test's call for C[C@H]1O[C@H](O[C@H]2[C@H](O)[C@@H](O)[C@@H](O[C@H]3[C@H](O)[C@@H](O)[C@H](O)O[C@@H]3CO)O[C@@H]2CO)[C@H](O)[C@@H](O)[C@@H]1N[C@H]1C=C(CO)[C@@H](O)[C@H](O)[C@H]1O is ___
class 0

Fill in: this test's call for CSc1ccc2c(c1)N(CCC1CCCCN1C)c1ccccc1S2 (centres undefined) is ___
class 0

Fill in: this test's call for CCCc1c(OCCCCc2nn[nH]n2)ccc(C(C)=O)c1O is ___
class 1

Fill in: this test's call for CC(CN(C)C)CN1c2ccccc2CCc2ccccc21 (centres undefined) is ___
class 0

Fill in: this test's call for C[C@H]1O[C@@H](n2cc(F)c(=O)[nH]c2=O)[C@H](O)[C@@H]1O is ___
class 0

Fill in: this test's call for CN(C)CCCO[C@@H]1[C@H]2OC(C)(C)O[C@H]2O[C@@H]1C(O)CO (some centres undefined) is ___
class 0

Fill in: this test's call for OCC(CO)N[C@H]1C[C@](O)(CO)[C@@H](O)[C@H](O)[C@H]1O is ___
class 0
